System: Pyricularia oryzae
Assay: microbe, parasite or virus in culture
Assay type: cell-based
Details: Pyricularia oryzae, 168 h, read-out: Observed efficacy
value-kind: inhibition of growth at 0.25 ppm
State the result as a value with its unit after it.

Input: // lookup inhibition of growth at 0.25 ppm | system=Pyricularia oryzae | key= COc1cc(CCNc2ncnc3c(F)ccc(F)c23)ccc1Oc1cc(C(F)(F)F)ccn1 [Compound I-18]
Output: 54%

Input: // lookup inhibition of growth at 0.25 ppm | system=Pyricularia oryzae | key= Fc1ccc(F)c2c(NCCc3ccc(Oc4cc(C(F)(F)F)ncn4)cc3)ncnc12 [Compound I-3]
Output: 43%

Input: // lookup inhibition of growth at 0.25 ppm | system=Pyricularia oryzae | key= COc1cc(CCNc2ncnc3c(F)ccc(F)c23)ccc1Oc1ncc(C(F)(F)F)cc1Cl [Compound I-17]
Output: 36%

Input: // lookup inhibition of growth at 0.25 ppm | system=Pyricularia oryzae | key= COc1cc(CCNc2ncnc3c(F)cc(F)c(F)c23)ccc1Oc1cc(C(F)(F)F)ccn1 [Compound I-19]
Output: 53%

Input: // lookup inhibition of growth at 0.25 ppm | system=Pyricularia oryzae | key= Fc1ccc(F)c2c(NCCc3ccc(Oc4cc(C(F)(F)F)ccn4)cc3)ncnc12 [Compound I-5]
Output: 59%

----------
Test system: Botrytis cinerea
Assay: Microtest: activity against the grey mold pathogen Botrytis cinerea
Type: cell-based
Conditions: Botrytis cinerea, 168 h; 4 ppm, single compound, 7 days; read-out: Observed efficacy
Kindly state inhibition of growth at 4 ppm for each of the entries shown.
Report the figure in % without appending any unit label.

Input: Look up inhibition of growth at 4 ppm for this compound: COc1cc(CCNc2ncnc3c(F)cc(F)c(F)c23)ccc1Oc1cc(C(F)(F)F)ccn1
Output: 15

Input: Look up inhibition of growth at 4 ppm for this compound: Fc1ccc(F)c2c(NCCc3ccc(Oc4cc(C(F)(F)F)ncn4)cc3)ncnc12
Output: 35

Input: Look up inhibition of growth at 4 ppm for this compound: COc1cc(CCNc2ncnc3c(F)ccc(F)c23)ccc1Oc1ncc(C(F)(F)F)cc1Cl
Output: 11

Input: Look up inhibition of growth at 4 ppm for this compound: COc1cc(CCNc2ncnc3c(F)ccc(F)c23)ccc1Oc1cc(C(F)(F)F)ccn1
Output: 24

Input: Look up inhibition of growth at 4 ppm for this compound: Fc1ccc(F)c2c(NCCc3ccc(Oc4cc(C(F)(F)F)ccn4)cc3)ncnc12
Output: 22
